The reader will find reported IC50 values listed item by item below.
Assayed system: purified Na^+,K^+ -ATPase (Canis lupus familiaris, UniProt P50997)
Construct: from tissue; mammalian kidney outer medulla by the cited Jorgensen 1974 method (own knowledge)
Procedure details: inhibition of the activity of the purified Na+,K+-ATPase measured as % of hydrolysis of 32P-ATP
Assay type: biochemical
Measured property: IC50 (µM)

Compound	Reading
C[C@]12CC[C@H](OCC(N)CN)C[C@H]1CC[C@@H]1[C@@H]2CC[C@]2(C)[C@@H](c3ccoc3)CC[C@]12O (stereo partly drawn) [Comp. I-ao]	1.58
C[C@]12CC[C@H](OCCNCCCN3CCCC3)C[C@H]1CC[C@@H]1[C@@H]2CC[C@]2(C)[C@@H](c3ccoc3)CC[C@]12O [Comp. I-db]	1.58
C[C@]12CC[C@H](OCCN3CCCC3)C=C1CC[C@@H]1[C@@H]2CC[C@]2(C)[C@@H](c3ccoc3)C[C@H]3O[C@]132 [Comp. I-bc]	2

---

Assayed system: purified Na^+,K^+ -ATPase (Canis lupus familiaris, UniProt P50997)
Construct: from tissue; mammalian kidney outer medulla by the cited Jorgensen 1974 method (own knowledge)
Procedure details: inhibition of the activity of the purified Na+,K+-ATPase measured as % of hydrolysis of 32P-ATP
Assay type: biochemical
Counter-ions that a name gives are not always drawn.
Overview of recorded IC50 for various compounds

Compound	Assayed system	IC50 (nM)
C[C@]12CC[C@H](OCCOCC(N)CN)C[C@H]1CC[C@@H]1[C@@H]2CC[C@]2(C)[C@@H](c3ccoc3)CC[C@]12O (stereo partly drawn)	purified Na^+,K^+ -ATPase (Canis lupus familiaris, UniProt P50997)	2000
C[C@]12CC[C@H](OCCOCCN3CCCC3)C[C@H]1CC[C@@H]1[C@@H]2CC[C@]2(C)[C@@H](c3ccoc3)CC[C@]12O	purified Na^+,K^+ -ATPase (Canis lupus familiaris, UniProt P50997)	794
C[C@]12CC[C@H](OCCN3CCCC3)C=C1CC[C@@H]1[C@@H]2CC[C@]2(C)[C@@H](c3ccoc3)CC[C@]12O [Comp. I-au, oxalate]	purified Na^+,K^+ -ATPase (Canis lupus familiaris, UniProt P50997)	1580

---

Assayed system: purified Na^+,K^+ -ATPase (Canis lupus familiaris)
Construct: from tissue; mammalian kidney outer medulla by the cited Jorgensen 1974 method (own knowledge)
Procedure details: inhibition of the activity of the purified Na+,K+-ATPase measured as % of hydrolysis of 32P-ATP
Type: biochemical

Compound	IC50 / nM
C[C@]12CC[C@H](OCCCCN)C[C@H]1CC[C@@H]1[C@@H]2CC[C@]2(C)[C@@H](c3ccoc3)CC[C@]12O	2000
C[C@]12CC[C@H](OCCOCC(O)CN)C[C@H]1CC[C@@H]1[C@@H]2CC[C@]2(C)[C@@H](c3ccoc3)CC[C@]12O (stereo partly shown)	1580
C[C@]12CC[C@H](OCCOCCCN3CCCC3)C[C@H]1CC[C@@H]1[C@@H]2CC[C@]2(C)[C@@H](c3ccoc3)CC[C@]12O	1580
C[C@]12CC[C@H](OCCCNC(=N)N)C[C@H]1CC[C@@H]1[C@@H]2CC[C@]2(C)[C@@H](c3ccoc3)CC[C@]12O	3160
C[C@]12CC[C@H](OCCCN)CC1=CC[C@@H]1[C@@H]2CC[C@]2(C)[C@@H](c3ccoc3)CC[C@]12O	2510
C[C@]12CC[C@H](OCCOCCCN)C[C@H]1CC[C@@H]1[C@@H]2CC[C@]2(C)[C@@H](c3ccoc3)CC[C@]12O	1580
C[C@]12CC[C@H](OCCNC(=N)N)C[C@H]1CC[C@@H]1[C@@H]2CC[C@]2(C)[C@@H](c3ccoc3)CC[C@]12O	1580
C[C@]12CC[C@H](OCCNCCN3CCCC3)C[C@H]1CC[C@@H]1[C@@H]2CC[C@]2(C)[C@@H](c3ccoc3)CC[C@]12O	1580
C[C@]12CC[C@H](OCCN3CCCC3)C[C@H]1CC[C@@H]1[C@@H]2CC[C@]2(C)[C@@H](c3ccoc3)CC[C@]12O	1000
C[C@]12CC[C@H](SCCN3CCOCC3)C[C@H]1CC[C@@H]1[C@@H]2CC[C@]2(C)[C@@H](c3ccoc3)CC[C@]12O	631
C[C@]12CC[C@H](OCCSCCN3CCCC3)C[C@H]1CC[C@@H]1[C@@H]2CC[C@]2(C)[C@@H](c3ccoc3)CC[C@]12O	631
CNCCO[C@H]1CC[C@@]2(C)[C@H](CC[C@@H]3[C@@H]2CC[C@]2(C)[C@@H](c4ccoc4)CC[C@]32O)C1	1580
C[C@]12CC[C@H](SCCOCCN3CCCC3)C[C@H]1CC[C@@H]1[C@@H]2CC[C@]2(C)[C@@H](c3ccoc3)CC[C@]12O	1000

---

Assayed system: Na^+,K^+ -ATPase receptor (Canis lupus familiaris, UniProt P50997)
Construct: from tissue; mammalian kidney outer medulla by the cited Jorgensen 1974 method (own knowledge)
Procedure details: displacement of the specific 3H-ouabain binding from the purified Na+,K+-ATPase receptor
pIC50: −log10 of the molar value. Structures can show the parent of a compound that is named as a salt.
Measured property: pIC50

Compound	Reading
C[C@]12CC[C@H](OCCCNC(=N)N)C[C@H]1CC[C@@H]1[C@@H]2CC[C@]2(C)[C@@H](c3ccoc3)CC[C@]12O [Comp. I-am]	6.70
C[C@]12CC[C@H](OCC(N)CN)C[C@H]1CC[C@@H]1[C@@H]2CC[C@]2(C)[C@@H](c3ccoc3)CC[C@]12O (stereo partly shown) [Comp. I-ao]	6.50
C[C@]12CC[C@H](OCCCN3CCCC3)C[C@H]1CC[C@@H]1[C@@H]2CC[C@]2(C)[C@@H](c3ccoc3)CC[C@]12O [Comp. I-ae]	6.90
C[C@]12CC[C@H](OCCNCCCN3CCCC3)C[C@H]1CC[C@@H]1[C@@H]2CC[C@]2(C)[C@@H](c3ccoc3)CC[C@]12O [Comp. I-db]	6.70
C[C@]12CC[C@H](OCCCN)C[C@H]1CC[C@@H]1[C@@H]2CC[C@]2(C)[C@@H](c3ccoc3)CC[C@]12O [Comp. I-ab]	6.90
C[C@]12CC[C@H](OCC(CN3CCCC3)N3CCCC3)C[C@H]1CC[C@@H]1[C@@H]2CC[C@]2(C)[C@@H](c3ccoc3)CC[C@]12O (stereo partly shown) [Comp. I-ap]	6.40
C[C@]12CC[C@H](OCCCCN)C[C@H]1CC[C@@H]1[C@@H]2CC[C@]2(C)[C@@H](c3ccoc3)CC[C@]12O [Comp. I-ac]	6.40
C[C@]12CC[C@H](OCC[N+]3(C)CCCC3)C[C@H]1CC[C@@H]1[C@@H]2CC[C@]2(C)[C@@H](c3ccoc3)CC[C@]12O [Comp. I-ak]	6.80
C[C@]12CC[C@H](SCCOCCN3CCCC3)C[C@H]1CC[C@@H]1[C@@H]2CC[C@]2(C)[C@@H](c3ccoc3)CC[C@]12O [Comp. I-by]	6.80
C[C@]12CC[C@H](OCCNCCN3CCCC3)C[C@H]1CC[C@@H]1[C@@H]2CC[C@]2(C)[C@@H](c3ccoc3)CC[C@]12O [Comp. I-ag]	6.80
C[C@]12CC[C@H](OCCOCC(N)CN)C[C@H]1CC[C@@H]1[C@@H]2CC[C@]2(C)[C@@H](c3ccoc3)CC[C@]12O (stereo partly shown) [Comp. I-cz]	6.40
C[C@]12CC[C@H](SCCCN)C[C@H]1CC[C@@H]1[C@@H]2CC[C@]2(C)[C@@H](c3ccoc3)C[C@H]3O[C@]132 [Comp. I-cj, oxalate]	5.70
C[C@]12CC[C@H](OCCN3CCCC3)CC1=CC[C@@H]1[C@@H]2CC[C@]2(C)[C@@H](c3ccoc3)CC[C@]12O [Comp. I-aw]	5.80
C[C@]12CC[C@H](OCCNC(=N)N)C[C@H]1CC[C@@H]1[C@@H]2CC[C@]2(C)[C@@H](c3ccoc3)CC[C@]12O [Comp. I-al]	6.90
CNCCO[C@H]1CC[C@@]2(C)[C@H](CC[C@@H]3[C@@H]2CC[C@]2(C)[C@@H](c4ccoc4)CC[C@]32O)C1 [Comp. I-an]	6.70
C[C@]12CC[C@H](OCCN3CCCC3)C=C1CC[C@@H]1[C@@H]2CC[C@]2(C)[C@@H](c3ccoc3)C[C@H]3O[C@]132 [Comp. I-bc]	6.50
C[C@]12CC[C@H](OCCSCCN3CCCC3)C[C@H]1CC[C@@H]1[C@@H]2CC[C@]2(C)[C@@H](c3ccoc3)CC[C@]12O [Comp. I-ai]	6.70
CN(C)CCCOCCO[C@H]1CC[C@@]2(C)[C@H](CC[C@@H]3[C@@H]2CC[C@]2(C)[C@@H](c4ccoc4)CC[C@]32O)C1 [Comp. I-aj]	6.80
C[C@]12CC[C@H](OCCOCCCN3CCCC3)C[C@H]1CC[C@@H]1[C@@H]2CC[C@]2(C)[C@@H](c3ccoc3)CC[C@]12O [Comp. I-da]	6.50
C[C@]12CC[C@H](OCCN)C[C@H]1CC[C@@H]1[C@@H]2CC[C@]2(C)[C@@H](c3ccoc3)CC[C@]12O [Comp. I-aa]	6.80
C[C@]12CC[C@H](SCCN3CCOCC3)C[C@H]1CC[C@@H]1[C@@H]2CC[C@]2(C)[C@@H](c3ccoc3)CC[C@]12O [Comp. I-bu]	6.50
C[C@]12CC[C@H](OCCCN3CCNCC3)C[C@H]1CC[C@@H]1[C@@H]2CC[C@]2(C)[C@@H](c3ccoc3)CC[C@]12O [Comp. I-af]	7.00
C[C@]12CC[C@H](SCCN3CCCC3)C=C1CC[C@@H]1[C@@H]2CC[C@]2(C)[C@@H](c3ccoc3)CC[C@]12O [Comp. I-ce, oxalate]	6.00
C[C@]12CC[C@H](OCCOCCN3CCCC3)C[C@H]1CC[C@@H]1[C@@H]2CC[C@]2(C)[C@@H](c3ccoc3)CC[C@]12O [Comp. I-ah]	6.80
C[C@]12CC[C@H](OCCN3CCCC3)C=C1CC[C@@H]1[C@@H]2CC[C@]2(C)[C@@H](c3ccoc3)CC[C@]12O [Comp. I-au, oxalate]	6.50
